Hello, the source for this data is ChEMBL document CHEMBL5137007, in case you need it.

# experiment-description: Selectivity index, ratio of IC50 for human MRC5 cells to IC50 for human A549 cells
# Format: toxicity
# conditions: MRC5 cells versus A549 cells, read-out: Selectivity Index
readout-name: selectivity ratio
Enter the number alone.

Recorded selectivity ratio (compound CCC[C@]1(O)C[C@H](O)[C@@H](C)[C@H]([C@H](C)[C@@H]2C/C=C/C=C/C=C/[C@H](O)C(=O)/C(C)=C/C(C)=C/[C@@H](O)/C(C)=C/CC(=O)O2)O1 ): 2.6

* * *

# Tested on: A549
# experiment-description: Antiproliferative activity against human A549 cells measured after 72 hrs by SRB assay
# Format: functional, cell-based
# conditions: A549, 72 h
readout-name: IC50 (µM)
The reply should be a number in µM, with the unit left off.

COc1cc([C@@H]2c3cc4c(cc3[C@@H](O[C@@H]3O[C@@H]5CO[C@@H](C)O[C@H]5[C@H](O)[C@H]3O)[C@H]3COC(=O)[C@H]23)OCO4)cc(OC)c1O [ETOPOSIDE] : 0.8

// next entry
Recorded IC50 (molecule CCC[C@]1(O)C[C@H](O)[C@@H](C)[C@H]([C@H](C)[C@@H]2C/C=C/C=C/C=C/[C@H](O)C(=O)/C(C)=C/C(C)=C/[C@@H](O)/C(C)=C/CC(=O)O2)O1 ): 7.3

* * *

# Test system: SK-HEP1
# experiment-description: Antiproliferative activity against human SK-HEP1 cells measured after 72 hrs by SRB assay
# Format: functional, cell-based
# conditions: SK-HEP1, 72 h
readout-name: pIC50
Expect pIC50 as a plain number equal to -log10 of the molar concentration.

CCC[C@]1(O)C[C@H](O)[C@@H](C)[C@H]([C@H](C)[C@@H]2C/C=C/C=C/C=C/[C@H](O)C(=O)/C(C)=C/C(C)=C/[C@@H](O)/C(C)=C/CC(=O)O2)O1 : 5.59

// next entry
Recorded pIC50 (compound COc1cc([C@@H]2c3cc4c(cc3[C@@H](O[C@@H]3O[C@@H]5CO[C@@H](C)O[C@H]5[C@H](O)[C@H]3O)[C@H]3COC(=O)[C@H]23)OCO4)cc(OC)c1O [ETOPOSIDE] ): 6.15

* * *

# experiment-description: Selectivity index, ratio of IC50 for human MRC5 cells to IC50 for human HCT-116 cells
# Format: toxicity
# conditions: MRC5 cells versus HCT-116 cells, read-out: Selectivity Index
readout-name: selectivity ratio
Enter the number alone.

Recorded selectivity ratio (compound CCC[C@]1(O)C[C@H](O)[C@@H](C)[C@H]([C@H](C)[C@@H]2C/C=C/C=C/C=C/[C@H](O)C(=O)/C(C)=C/C(C)=C/[C@@H](O)/C(C)=C/CC(=O)O2)O1 ): 14.2

* * *

# experiment-description: Antiproliferative activity against human MRC5 cells measured after 72 hrs by SRB assay
# Format: toxicity, cell-based
readout-name: IC50 at 72 h (µM)
The reply should be a number in µM, with the unit left off.

Recorded IC50 at 72 h (compound CCC[C@]1(O)C[C@H](O)[C@@H](C)[C@H]([C@H](C)[C@@H]2C/C=C/C=C/C=C/[C@H](O)C(=O)/C(C)=C/C(C)=C/[C@@H](O)/C(C)=C/CC(=O)O2)O1 ): 18.7

* * *

# experiment-description: Selectivity index, ratio of IC50 for human MRC5 cells to IC50 for human SK-HEP1 cells
# Format: toxicity
# conditions: MRC5 cells versus SK-HEP1 cells, read-out: Selectivity Index
readout-name: selectivity ratio
Enter the number alone.

Recorded selectivity ratio (molecule CCC[C@]1(O)C[C@H](O)[C@@H](C)[C@H]([C@H](C)[C@@H]2C/C=C/C=C/C=C/[C@H](O)C(=O)/C(C)=C/C(C)=C/[C@@H](O)/C(C)=C/CC(=O)O2)O1 ): 7.2

* * *

# experiment-description: Selectivity index, ratio of IC50 for human MRC5 cells to IC50 for human MDA-MB-231 cells
# Format: toxicity
# conditions: MRC5 cells versus MDA-MB-231 cells, read-out: Selectivity Index
readout-name: selectivity ratio
Enter the number alone.

Recorded selectivity ratio (compound CCC[C@]1(O)C[C@H](O)[C@@H](C)[C@H]([C@H](C)[C@@H]2C/C=C/C=C/C=C/[C@H](O)C(=O)/C(C)=C/C(C)=C/[C@@H](O)/C(C)=C/CC(=O)O2)O1 ): 5.5

* * *

The entries below come with measured pIC50 values attached.
# Test system: MDA-MB-231
# experiment-description: Antiproliferative activity against human MDA-MB-231 cells measured after 72 hrs by SRB assay
# Type: functional, cell-based
# conditions: MDA-MB-231, 72 h
Expect pIC50 as a plain number equal to -log10 of the molar concentration.

COc1cc([C@@H]2c3cc4c(cc3[C@@H](O[C@@H]3O[C@@H]5CO[C@@H](C)O[C@H]5[C@H](O)[C@H]3O)[C@H]3COC(=O)[C@H]23)OCO4)cc(OC)c1O [ETOPOSIDE] : 5.01

// next entry
Recorded pIC50 (compound CCC[C@]1(O)C[C@H](O)[C@@H](C)[C@H]([C@H](C)[C@@H]2C/C=C/C=C/C=C/[C@H](O)C(=O)/C(C)=C/C(C)=C/[C@@H](O)/C(C)=C/CC(=O)O2)O1 ): 5.47
